System: T47D
Assay: NCI tumour cell line growth inhibition, 48 h
Active and inactive are the calls of the source. No stated cut-off is given here; in the data, active = GI50 up to about 1.1 µM and inactive = higher.
In this exercise, the only acceptable responses are active, inactive

Query :: Hey, what did the test say about CCOC(=O)Nc1cc2c(c(N)n1)N=C(c1ccccc1)CN2 ?
Result :: inactive

Query :: Hey, what did the test say about O=C(c1ccsc1)c1nccc2c1cnc1ccccc12 ?
Result :: inactive

Query :: Hey, what did the test say about O=C(/C=C/c1ccc(O)c(-c2cc(C(=O)/C=C/c3ccc(O)cc3)c(O)cc2O)c1)c1ccc(O)cc1O ?
Result :: inactive

Query :: Hey, what did the test say about COc1ccc(/C=C/c2cc(OC)cc(=O)o2)cc1 ?
Result :: inactive

Query :: Hey, what did the test say about Nc1ncnc2c1ccn2C1OC2COP(=O)(O)OC2C1O (stereo not given) ?
Result :: active

###

Tested on: HT-29
Assay: NCI tumour cell line growth inhibition, 48 h
Activity calls are given as the source filed them. Cut-off read from the data, not from the text of the source: active = GI50 up to about 1.1 µM and inactive = higher.
In this exercise, the only acceptable responses are 1 = active, -1 = inactive

Query :: Hey, what did the test say about COC(=O)Nc1nc2cc(NC(=O)c3ccc(I)cc3)ccc2[nH]1 ?
Result :: -1

Query :: Hey, what did the test say about CC(N)C(=O)c1ccc(O)cc1 (stereo unspecified) ?
Result :: -1

Query :: Hey, what did the test say about Cc1ccc2c(O)cc(-c3cccc(Cl)c3)nc2n1 ?
Result :: 1

Query :: Hey, what did the test say about COC(=O)C(NC(=O)c1ccccc1)C(c1ccc(Cl)cc1)P(=O)(OC)OC (stereo unspecified) ?
Result :: -1

Query :: Hey, what did the test say about C#CCSc1nc(N)c2ncn(C3OC(COP(=O)(O)O)C(O)C3O)c2n1 (stereo unspecified) ?
Result :: -1

Query :: Hey, what did the test say about Clc1nc(Cl)c(Cc2ccccc2)c(Cl)n1 ?
Result :: -1

Query :: Hey, what did the test say about COc1ccc2cc3[n+](cc2c1O)CCc1cc2c(cc1-3)OCO2 [BERBERRUBINE CHLORIDE] ?
Result :: -1

Query :: Hey, what did the test say about CCOP(=O)(OCC)/C(F)=C/c1ccccc1 ?
Result :: -1

Query :: Hey, what did the test say about CN(C)CC/C(=N\Nc1c(F)c(F)c(F)c(F)c1F)c1ccccc1 ?
Result :: -1

Query :: Hey, what did the test say about CCOC(=O)c1sc2c(c1OC(=O)c1ccc(Cl)cc1Cl)c(=O)n(-c1ccccc1)c(=S)n2-c1ccccc1 ?
Result :: -1

Query :: Hey, what did the test say about O[C@]12CCCC[C@H]1CCC2 ?
Result :: -1

###

Test system: COLO 205
Test: NCI tumour cell line growth inhibition, 48 h
Active and inactive are the calls of the source. Rule as the data show it: active = GI50 up to about 1.1 µM and inactive = higher.
In this exercise, the only acceptable responses are y = active, n = inactive

Query :: Hey, what did the test say about CCOC(=O)N[C@@H]1C(CC(=O)OC)O[C@H]2OC(C)(C)O[C@H]21 (stereo partly specified) ?
Result :: n

Query :: Hey, what did the test say about CCN(CC)CCn1c(=O)c2cccnc2n2c3c(=O)n(C)c(=O)n(C)c3nc12 ?
Result :: n

Query :: Hey, what did the test say about COc1ccccc1N1C(=O)CSC1c1cc(OC)c(OC)c(OC)c1 (stereo unspecified) ?
Result :: n

Query :: Hey, what did the test say about SC1=NC2=C(CSC/C2=C\c2cccc(Br)c2)C(c2cccc(Br)c2)N1 (stereo unspecified) ?
Result :: n

Query :: Hey, what did the test say about Cc1ccc(C)n2c1nc1ccccc12 ?
Result :: n

Query :: Hey, what did the test say about O=[N+]([O-])c1cccc2nc3ccccc3c(NCCc3cccc[n+]3[O-])c12 ?
Result :: y

Query :: Hey, what did the test say about O=C(C#Cc1ccccc1)Nc1ccccc1CC(c1c[nH]c2ccccc12)c1c[nH]c2ccccc12 ?
Result :: n

Query :: Hey, what did the test say about C[C@]12CC[C@H]3[C@@H](CC[C@]4(O)C[C@@H](O)CC[C@]34C=O)[C@@]1(O)CC[C@@H]2C1=CC(=O)OC1 ?
Result :: n

Query :: Hey, what did the test say about C#CCSc1nc(N)c2ncn(C3OC(COP(=O)(O)O)C(O)C3O)c2n1 (stereo unspecified) ?
Result :: n

Query :: Hey, what did the test say about Cc1c(/C=N/NC(=O)c2cc(Br)cc(Br)c2O)c(=O)n(-c2ccccc2)n1C ?
Result :: n

Query :: Hey, what did the test say about [O-][S+]1c2ccccc2N=C(c2ccc3ccccc3c2)CC1c1ccccc1 (stereo unspecified) ?
Result :: n

Query :: Hey, what did the test say about O=C(/C=C/c1ccc(O)c(-c2cc(C(=O)/C=C/c3ccc(O)cc3)c(O)cc2O)c1)c1ccc(O)cc1O ?
Result :: n

Query :: Hey, what did the test say about O[C@]12CCCC[C@H]1CCC2 ?
Result :: n

Query :: Hey, what did the test say about CCOP(=O)(Cc1nc(C#N)c(N)o1)OCC ?
Result :: n

Query :: Hey, what did the test say about O=C1C(CO)=C[C@@H](O)[C@H]2O[C@@H]12 ?
Result :: n

Query :: Hey, what did the test say about COc1ccccc1C(=O)OCC1CCCN2CCCCC12 (stereo unspecified) ?
Result :: n

Query :: Hey, what did the test say about CCOc1ccc(O)cc1[P+](c1ccccc1)(c1ccccc1)c1ccccc1 ?
Result :: n

Query :: Hey, what did the test say about O=C1C2=Cc3ccccc3CCN2c2ccc([N+](=O)[O-])cc21 ?
Result :: n

Query :: Hey, what did the test say about O=C(SC1=NCCN1)c1cccc2ccccc12 ?
Result :: n

Query :: Hey, what did the test say about O=C1/C(=C/c2ccc3c(c2)OCO3)CCC1CN1CCOCC1 (stereo unspecified) ?
Result :: n

Query :: Hey, what did the test say about CN1CN(c2ccccc2)C2(CCN(Cc3csc4ccccc34)CC2)C1=O ?
Result :: n

Query :: Hey, what did the test say about CN(C)c1ccc(Cc2cc3c(O)ccc(O)c3cc(Cc3ccc(N(C)C)cc3)c2=O)cc1 ?
Result :: n

Query :: Hey, what did the test say about Clc1ccc(Nc2nn3c(CCCCCCCCc4nnc5sc(Nc6ccc(Cl)cc6)nn45)nnc3s2)cc1 ?
Result :: n

Query :: Hey, what did the test say about Cc1nc(-c2ccc(Cl)cc2)cn2c1nc1ccccc12 ?
Result :: n

Query :: Hey, what did the test say about CC12OC(=O)C(C#N)C1(C)C1C(=O)CCCC12 (stereo unspecified) ?
Result :: n

Query :: Hey, what did the test say about CCCOP1(=O)C=CC(Cl)=C(C)C1 (stereo unspecified) ?
Result :: n

Query :: Hey, what did the test say about CC1CN=C(N(C)C(=O)Nc2ccc(Cl)c(Cl)c2)S1 (stereo unspecified) ?
Result :: n

Query :: Hey, what did the test say about O=C1CCC(c2ccccc2)(c2ccccc2)CC1 ?
Result :: n

Query :: Hey, what did the test say about CC(C)C(CCOS(=O)(=O)O)CCC(C)[C@H]1[C@@H](O)C(O)C2[C@]3(O)C[C@@H](O)C4(O)C[C@@H](O)CC[C@]4(C)C3CC[C@@]21C (stereo partly specified) ?
Result :: n

Query :: Hey, what did the test say about Cc1c(C(=O)CSc2nc3cc([N+](=O)[O-])ccc3[nH]2)c(=O)n(-c2ccccc2)n1C ?
Result :: n

Query :: Hey, what did the test say about CCOP(=O)(/C=C/n1ccc(N)nc1=O)OCC ?
Result :: n

Query :: Hey, what did the test say about CC(=O)NC1C(OCc2ccccc2)OC(CO)C(O)C1OCC(=O)NC(C)C(=O)NC(CCC(=O)Nc1ccc2c(c1)CN1C(=O)c3ccccc3C1=N2)C(N)=O (stereo unspecified) ?
Result :: n

Query :: Hey, what did the test say about O=c1ncc(F)cn1C1OC(CO)C(O)C1O (stereo unspecified) ?
Result :: n

Query :: Hey, what did the test say about O=C(CSCC(=O)N/N=C\c1ccc(F)cc1F)N/N=C\c1ccc(F)cc1F ?
Result :: n

Query :: Hey, what did the test say about CC(C)C(/C=C/c1ccc(Cl)cc1)=N\NC(=O)N/N=C(/C=C/c1ccc(Cl)cc1)C(C)C ?
Result :: n

Query :: Hey, what did the test say about COc1ccc2c3c1O[C@H]1C[C@@H](O)C=C[C@@]31CCN(C)C2 ?
Result :: n

Query :: Hey, what did the test say about COC(=O)/C(C#N)=C(\N)C(Cl)(Cl)Cl ?
Result :: n

Query :: Hey, what did the test say about COC(=O)Nc1nc2cc(C(=O)c3ccc[nH]3)ccc2[nH]1 ?
Result :: y

Query :: Hey, what did the test say about O=C1/C(=C/c2ccccc2)CN(C(=O)/C=C/c2ccccc2)C/C1=C\c1ccccc1 ?
Result :: n

Query :: Hey, what did the test say about O=C(O)/C=C/n1c2ccccc2c(=O)c2ccccc21 ?
Result :: n

Query :: Hey, what did the test say about Cc1cn(CCCCOC(=O)NC(CCCNC(N)=O)C(=O)O)c(=O)[nH]c1=O (stereo unspecified) ?
Result :: n

The measured values listed here are drawn from ChEMBL document CHEMBL1201862.
